# ASSAYED TARGET: human V1a receptor (Homo sapiens)
# Construct: expressed in transfected cells; host or cells: CHO K1 (ATCC), also stably transfected with a modified aequorin
# Sequence (P37288 whole entry): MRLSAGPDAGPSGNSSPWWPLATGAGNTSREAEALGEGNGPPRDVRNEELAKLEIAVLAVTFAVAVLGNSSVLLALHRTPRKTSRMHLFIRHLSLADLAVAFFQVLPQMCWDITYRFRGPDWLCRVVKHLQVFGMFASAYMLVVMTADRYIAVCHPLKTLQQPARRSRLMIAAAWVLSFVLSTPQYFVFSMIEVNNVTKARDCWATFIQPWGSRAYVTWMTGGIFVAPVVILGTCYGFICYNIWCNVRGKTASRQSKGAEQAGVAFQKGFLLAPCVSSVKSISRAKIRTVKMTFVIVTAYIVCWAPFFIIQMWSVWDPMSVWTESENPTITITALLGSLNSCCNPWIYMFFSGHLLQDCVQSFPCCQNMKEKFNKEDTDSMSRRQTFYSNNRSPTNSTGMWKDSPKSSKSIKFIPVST
# ASSAY NOTES: Cellular in vitro assay for determining vasopressin receptor activity, V1a receptor cell line (aequorin luminescence)
# Format: cell-based
# CONDITION DESCRIPTION: ratio of the IC50 values at human V2 and human V1a receptor
EXPERIMENTAL READOUT: ratio IC50 hV2/hV1a

See these solved cases before continuing.
MOLECULE	ASSAYED TARGET	RESULT NUMBER
CC(C)(O)c1nc(Cn2nc(-c3ccc(Cl)cc3)n(C[C@H](O)C(F)(F)F)c2=O)nn1-c1cccc(F)c1	human V1a receptor (Homo sapiens)	3.8
CC(C)(O)c1nc(Cn2nc(-c3ccc(Cl)cc3)n(C[C@H](O)C(F)(F)F)c2=O)nn1-c1cccc(Cl)c1	human V1a receptor (Homo sapiens)	0.2

P: O=c1n(Cc2nc(C(O)C(F)(F)F)n(-c3cccc(Cl)c3)n2)nc(-c2ccc(Cl)cc2)n1C[C@H](O)C(F)(F)F (single isomer, unassigned) [Example 11]
Q: O=c1n(Cc2nc(C(O)C(F)(F)F)n(-c3cccc(Cl)c3)n2)nc(-c2ccc(Cl)cc2)n1C[C@H](O)C(F)(F)F (single isomer, unassigned) [Example 12]
R: O=c1n(Cc2nc(C(O)C(F)(F)F)n(-c3cccc(Cl)c3)n2)nc(-c2ccc(Cl)cc2)n1C[C@H](O)C(F)(F)F (mixture of isomers) [Example 10]
S: CC(O)(C(=O)O)c1nc(Cn2nc(-c3ccc(Cl)cc3)n(C[C@H](O)C(F)(F)F)c2=O)nn1-c1ccccc1Cl (mixture of isomers) [Example 14]
Prompt line: Sequence the entries by ratio IC50 hV2/hV1a, beginning with the highest number. Give your ranking as a list of the labels in the requested order.
Response line: Q, S, R, P
(Q: 15.8, S: 4.6, R: 0.2, P: 0.1)

====

# ASSAYED TARGET: UniProt P30518
# Sequence (P30518 whole entry): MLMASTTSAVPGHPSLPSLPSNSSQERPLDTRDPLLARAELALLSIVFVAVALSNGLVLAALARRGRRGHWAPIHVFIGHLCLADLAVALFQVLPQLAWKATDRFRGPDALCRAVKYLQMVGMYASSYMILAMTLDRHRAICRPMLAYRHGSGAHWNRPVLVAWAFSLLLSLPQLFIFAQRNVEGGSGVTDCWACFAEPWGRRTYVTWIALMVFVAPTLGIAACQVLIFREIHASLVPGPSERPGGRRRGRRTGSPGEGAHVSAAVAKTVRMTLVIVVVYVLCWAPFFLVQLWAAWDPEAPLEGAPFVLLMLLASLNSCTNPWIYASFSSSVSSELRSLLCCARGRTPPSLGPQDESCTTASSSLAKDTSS
# ASSAY NOTES: Cellular in vitro assay for determining vasopressin receptor activity, V2 receptor cell line (CRE-luciferase)
# CONDITION DESCRIPTION: CHO cell line transfected with the human V2 receptor; [Arg8]-vasopressin at EC50 concentration; read-out: IC50 hV2
pIC50: −log10 of the molar value.
EXPERIMENTAL READOUT: pIC50

These solved cases illustrate the format of a correct answer.
>>> print(df.to_string())
                                   molecule  experimental_readout  result_number
0  CC(C)C(O)c1nc(Cn2nc(-c3ccc(Cl)cc3)n(C[C@H](O)C(F)(F)F)c2=O)nn1-c1ccccc1Cl (single isomer, unassigned) [Example 9]                 pIC50           7.60
1  CCC(O)c1nc(Cn2nc(-c3ccc(Cl)cc3)n(C[C@H](O)C(F)(F)F)c2=O)nn1-c1ccccc1Cl (single isomer, unassigned) [Example 5]                 pIC50           8.38
2  CC(O)(C(=O)O)c1nc(Cn2nc(-c3ccc(Cl)cc3)n(C[C@H](O)C(F)(F)F)c2=O)nn1-c1ccccc1Cl (single isomer, unassigned) [Example 16]                 pIC50           6.60
3  CC(C)C(O)c1nc(Cn2nc(-c3ccc(Cl)cc3)n(C[C@H](O)C(F)(F)F)c2=O)nn1-c1ccccc1Cl (single isomer, unassigned) [Example 8]                 pIC50           8.66

P: COc1ccccc1-n1nc(Cn2nc(-c3ccc(Cl)cc3)n(C[C@H](O)C(F)(F)F)c2=O)nc1C(C)(C)O
Q: CCC(O)c1nc(Cn2nc(-c3ccc(Cl)cc3)n(C[C@H](O)C(F)(F)F)c2=O)nn1-c1ccccc1Cl (mixture of isomers) [Example 4]
Prompt line: Would you let me know which has the greater pIC50 value, P or Q ? Choose, then provide that item's label.
Response line: P

====

# ASSAYED TARGET: UniProt P37288
# ASSAY NOTES: Cellular in vitro assay for determining vasopressin receptor activity, V1a receptor cell line (aequorin luminescence)
# CONDITION DESCRIPTION: CHO cell line transfected with the human V1a receptor; [Arg8]-vasopressin at EC50 concentration; read-out: IC50 hV1a
# Protocol: B-1. Cellular In Vitro Assay for Determining Vasopressin Receptor Activity The identification of agonists and antagonists of the V1a and V2 vasopressin receptors from humans, rats and dogs as well as the quantification of the activity of the compounds of the invention is carried out using recombinant cell lines. […] The bioluminescence of the cell lines is detected using a suitable luminometer [Milligan G, Marshall F, Rees S, Trends in Pharmacological Sciences 17, 235-237 (1996)]. […]
pIC50: −log10 of the molar value.
EXPERIMENTAL READOUT: pIC50

Would you please look over these solved cases?
In [3]: df
Out[3]:
                                   molecule  assayed_target  result_number
0  CC(C)(O)c1nc(Cn2nc(-c3ccc(Cl)cc3)n(C[C@H](O)C(F)(F)F)c2=O)nn1-c1ccccc1Cl  UniProt P37288           8.68
1  CC(C)(O)c1nc(Cn2nc(-c3ccc(Cl)cc3)n(C[C@H](O)C(F)(F)F)c2=O)nn1-c1cccc(Cl)c1  UniProt P37288           7.66
2  CC(C)(O)c1nc(Cn2nc(-c3ccc(Cl)cc3)n(C[C@H](O)C(F)(F)F)c2=O)nn1-c1cccc(F)c1  UniProt P37288           8.18
3  CCC(O)c1nc(Cn2nc(-c3ccc(Cl)cc3)n(C[C@H](O)C(F)(F)F)c2=O)nn1-c1ccccc1Cl (single isomer, unassigned) [Example 6]  UniProt P37288           9.15
4  CC(O)(C(=O)O)c1nc(Cn2nc(-c3ccc(Cl)cc3)n(C[C@H](O)C(F)(F)F)c2=O)nn1-c1ccccc1Cl (mixture of isomers) [Example 14]  UniProt P37288           7.78

A: O=c1n(Cc2nc(C(O)C(F)(F)F)n(-c3cccc(Cl)c3)n2)nc(-c2ccc(Cl)cc2)n1C[C@H](O)C(F)(F)F (mixture of isomers) [Example 10]
B: CCC(O)c1nc(Cn2nc(-c3ccc(Cl)cc3)n(C[C@H](O)C(F)(F)F)c2=O)nn1-c1ccccc1Cl (single isomer, unassigned) [Example 5]
Prompt line: Compare the recorded pIC50 of A and B ; state which is larger. State your choice using its label.
Response line: B
(B: 8.80, A: 7.87)

====

# ASSAYED TARGET: human V1a receptor (Homo sapiens)
# Construct: expressed in transfected cells; host or cells: CHO K1 (ATCC), also stably transfected with a modified aequorin
# ASSAY NOTES: Cellular in vitro assay for determining vasopressin receptor activity, V1a receptor cell line (aequorin luminescence)
# Format: cell-based
# CONDITION DESCRIPTION: ratio of the IC50 values at human V2 and human V1a receptor
# Protocol: B-1. Cellular In Vitro Assay for Determining Vasopressin Receptor Activity The identification of agonists and antagonists of the V1a and V2 vasopressin receptors from humans, rats and dogs as well as the quantification of the activity of the compounds of the invention is carried out using recombinant cell lines. […] The bioluminescence of the cell lines is detected using a suitable luminometer [Milligan G, Marshall F, Rees S, Trends in Pharmacological Sciences 17, 235-237 (1996)]. […]
EXPERIMENTAL READOUT: ratio IC50 hV2/hV1a

Answered cases to consult:
In [3]: df
Out[3]:
                                   compound  experimental_readout  result_number
0  CC(C)(O)c1nc(Cn2nc(-c3ccc(Cl)cc3)n(C[C@H](O)C(F)(F)F)c2=O)nn1-c1ccccc1Cl   ratio IC50 hV2/hV1a            3.3
1  CC(C)C(O)c1nc(Cn2nc(-c3ccc(Cl)cc3)n(C[C@H](O)C(F)(F)F)c2=O)nn1-c1ccccc1Cl (single isomer, unassigned) [Example 8]   ratio IC50 hV2/hV1a            3.7
2  CC(C)C(O)c1nc(Cn2nc(-c3ccc(Cl)cc3)n(C[C@H](O)C(F)(F)F)c2=O)nn1-c1ccccc1Cl (mixture of isomers) [Example 7]   ratio IC50 hV2/hV1a            6.4

P: COc1ccccc1-n1nc(Cn2nc(-c3ccc(Cl)cc3)n(C[C@H](O)C(F)(F)F)c2=O)nc1C(C)(C)O
Q: CC(O)(C(=O)O)c1nc(Cn2nc(-c3ccc(Cl)cc3)n(C[C@H](O)C(F)(F)F)c2=O)nn1-c1ccccc1Cl (single isomer, unassigned) [Example 16]
Prompt line: Consider P and Q . Which of these has its ratio IC50 hV2/hV1a at a higher number? Give the label of your selection.
Response line: Q
(Q: 45.8, P: 2.4)

// provenance: patent US10927098B2
